Target: phesphatidylinositol-3-kinase
Assay: PI-3 kinase enzyme inhibition
Assay type: biochemical
Settings: dose to cause 50% inhibition; read-out: P1-3 kinase Inhibition IC50
pIC50: −log10 of the molar value.
Entry flag: condition met if pIC50 reaches 6; condition not met if it does not.

Threshold query (pIC50 >= 6) on `COC[C@H]1OC(=O)/C(=C/NCC(N)=O)C2=C(O)C(=O)C3=C([C@H](OC(C)=O)C[C@]4(C)C(=O)CC[C@@H]34)[C@]21C`
condition not met

Same read-out for `COC[C@H]1OC(=O)C(=CN(C)Cc2ccccc2)C2=C(O)C(=O)C3=C([C@H](OC(C)=O)C[C@]4(C)C(=O)CC[C@@H]34)[C@]21C` ?
condition met

Now this one: COC[C@H]1OC(=O)/C(=C/NC(C)C(=O)O)C2=C(O)C(=O)C3=C([C@H](OC(C)=O)C[C@]4(C)C(=O)CC[C@@H]34)[C@]21C (some centres unmarked)
condition met
